Test system: Vibrio cholerae
Experiment: Antibacterial activity against Vibrio cholerae MTCC 3906 after overnight incubation by broth microdilution method
Format: functional
Listing: MIC99 of selected compounds
Write down the numeric answer in µg/mL and omit the unit.

{"smilesCode": "Cc1ccc2nc(Oc3ccccc3)c(-c3c(C#N)c(N)n4c(nc5cc(C)ccc54)c3C#N)cc2c1", "reportedProperty": "MIC99", "experimentalResult": 200}
{"smilesCode": "N#Cc1c(-c2cc3ccccc3nc2Oc2ccc(F)cc2)c(C#N)c2nc3ccccc3n2c1N", "reportedProperty": "MIC99", "experimentalResult": 250}
{"smilesCode": "Cc1ccc2c(c1)nc1c(C#N)c(-c3cc4ccccc4nc3Oc3ccc(F)cc3)c(C#N)c(N)n12", "reportedProperty": "MIC99", "experimentalResult": 500}

Enquiry: So what does the record say about MIC99 for "Cc1ccc(Oc2nc3ccc(C)cc3cc2-c2c(C#N)c(N)n3c(nc4ccccc43)c2C#N)cc1" ?
Return: 100

Enquiry: So what does the record say about MIC99 for "COc1ccc(Oc2nc3ccc(C)cc3cc2-c2c(C#N)c(N)n3c(nc4cc(C)ccc43)c2C#N)cc1" ?
Return: 200

Enquiry: So what does the record say about MIC99 for "COc1ccc2nc(Oc3ccccc3)c(-c3c(C#N)c(N)n4c(nc5ccccc54)c3C#N)cc2c1" ?
Return: 200

Enquiry: So what does the record say about MIC99 for "COc1ccc2nc(Oc3ccc(F)cc3)c(-c3c(C#N)c(N)n4c(nc5cc(C)ccc54)c3C#N)cc2c1" ?
Return: 200

Enquiry: So what does the record say about MIC99 for "Cc1ccc2nc(Oc3ccc(F)cc3)c(-c3c(C#N)c(N)n4c(nc5ccccc54)c3C#N)cc2c1" ?
Return: 250

Enquiry: So what does the record say about MIC99 for "COc1ccc(Oc2nc3ccc(OC)cc3cc2-c2c(C#N)c(N)n3c(nc4cc(C)ccc43)c2C#N)cc1" ?
Return: 125

Enquiry: So what does the record say about MIC99 for "O=C(O)c1cn(C2CC2)c2cc(N3CCNCC3)c(F)cc2c1=O" ?
Return: 25

====

Test system: Bacillus subtilis
Assay: Antibacterial activity against Bacillus subtilis MTCC 441 after overnight incubation by broth microdilution method
Type: functional
reportedProperty: MIC99 (µg/mL)
Write down the numeric answer in µg/mL and omit the unit.

Previously resolved entries follow.
{"smilesCode": "CCn1cc(C(=O)O)c(=O)c2cc(F)c(N3CCNCC3)cc21", "experimentalResult": 100}
{"smilesCode": "Cc1ccc2nc(Oc3ccccc3)c(-c3c(C#N)c(N)n4c(nc5ccccc54)c3C#N)cc2c1", "experimentalResult": 200}
{"smilesCode": "Cc1ccc2nc(Oc3ccc(F)cc3)c(-c3c(C#N)c(N)n4c(nc5ccccc54)c3C#N)cc2c1", "experimentalResult": 250}
{"smilesCode": "Cc1ccc(Oc2nc3ccc(C)cc3cc2-c2c(C#N)c(N)n3c(nc4cc(C)ccc43)c2C#N)cc1", "experimentalResult": 200}
{"smilesCode": "Cc1ccc2c(c1)nc1c(C#N)c(-c3cc4ccccc4nc3Oc3ccc(F)cc3)c(C#N)c(N)n12", "experimentalResult": 500}

Enquiry: Hi! What's the reported MIC99 for "CC1(C)S[C@@H]2[C@H](NC(=O)[C@H](N)c3ccccc3)C(=O)N2[C@H]1C(=O)O" on Bacillus subtilis?
Return: 250

Enquiry: Hi! What's the reported MIC99 for "N#Cc1c(-c2cc3ccccc3nc2Oc2ccccc2)c(C#N)c2nc3ccccc3n2c1N" on Bacillus subtilis?
Return: 100

====

System: Escherichia coli
Assay: Antibacterial activity against Escherichia coli MTCC 443 after overnight incubation by broth microdilution method
Assay type: functional
reportedProperty: MIC99 (µg/mL)
Write down the numeric answer in µg/mL and omit the unit.

Previously resolved entries follow.
{"smilesCode": "Cc1ccc2nc(Oc3ccc(F)cc3)c(-c3c(C#N)c(N)n4c(nc5cc(C)ccc54)c3C#N)cc2c1", "reportedProperty": "MIC99", "experimentalResult": 200}
{"smilesCode": "COc1ccc2nc(Oc3ccc(F)cc3)c(-c3c(C#N)c(N)n4c(nc5cc(C)ccc54)c3C#N)cc2c1", "reportedProperty": "MIC99", "experimentalResult": 100}
{"smilesCode": "COc1ccc(Oc2nc3ccc(C)cc3cc2-c2c(C#N)c(N)n3c(nc4cc(C)ccc43)c2C#N)cc1", "reportedProperty": "MIC99", "experimentalResult": 250}
{"smilesCode": "O=C(O)c1cn(C2CC2)c2cc(N3CCNCC3)c(F)cc2c1=O", "reportedProperty": "MIC99", "experimentalResult": 25}
{"smilesCode": "Cc1ccc2nc(Oc3ccc(F)cc3)c(-c3c(C#N)c(N)n4c(nc5ccccc54)c3C#N)cc2c1", "reportedProperty": "MIC99", "experimentalResult": 200}

Enquiry: So what does the record say about MIC99 for "COc1ccc(Oc2nc3ccccc3cc2-c2c(C#N)c(N)n3c(nc4ccccc43)c2C#N)cc1" ?
Return: 125

Enquiry: So what does the record say about MIC99 for "COc1ccc(Oc2nc3ccc(OC)cc3cc2-c2c(C#N)c(N)n3c(nc4ccccc43)c2C#N)cc1" ?
Return: 125

Enquiry: So what does the record say about MIC99 for "COc1ccc2nc(Oc3ccc(F)cc3)c(-c3c(C#N)c(N)n4c(nc5ccccc54)c3C#N)cc2c1" ?
Return: 200

====

Listing: MIC99 of selected compounds
Tested on: Escherichia coli
Experiment: Antibacterial activity against Escherichia coli MTCC 443 after overnight incubation by broth microdilution method
Assay type: functional
Write down the numeric answer in µg/mL and omit the unit.

{"smilesCode": "N#Cc1c(-c2cc3ccccc3nc2Oc2ccccc2)c(C#N)c2nc3ccccc3n2c1N", "MIC99 / µg/mL": 250}
{"smilesCode": "Cc1ccc(Oc2nc3ccc(C)cc3cc2-c2c(C#N)c(N)n3c(nc4ccccc43)c2C#N)cc1", "MIC99 / µg/mL": 100}
{"smilesCode": "Cc1ccc(Oc2nc3ccccc3cc2-c2c(C#N)c(N)n3c(nc4cc(C)ccc43)c2C#N)cc1", "MIC99 / µg/mL": 62.5}
{"smilesCode": "COc1ccc(Oc2nc3ccc(OC)cc3cc2-c2c(C#N)c(N)n3c(nc4cc(C)ccc43)c2C#N)cc1", "MIC99 / µg/mL": 200}
{"smilesCode": "COc1ccc2nc(Oc3ccccc3)c(-c3c(C#N)c(N)n4c(nc5cc(C)ccc54)c3C#N)cc2c1", "MIC99 / µg/mL": 62.5}
{"smilesCode": "COc1ccc2nc(Oc3ccc(C)cc3)c(-c3c(C#N)c(N)n4c(nc5ccccc54)c3C#N)cc2c1", "MIC99 / µg/mL": 125}
{"smilesCode": "Cc1ccc2nc(Oc3ccccc3)c(-c3c(C#N)c(N)n4c(nc5cc(C)ccc54)c3C#N)cc2c1", "MIC99 / µg/mL": 250}

Okay, next one:
Enquiry: So what does the record say about MIC99 for "COc1ccc(Oc2nc3ccccc3cc2-c2c(C#N)c(N)n3c(nc4cc(C)ccc43)c2C#N)cc1" ?
Return: 100

====

Tested on: Bacillus subtilis
Assay: Antibacterial activity against Bacillus subtilis MTCC 441 after overnight incubation by broth microdilution method
Format: functional
Listing: MIC99 of selected compounds
Please don't drop the unit; write it after the number.

{"smilesCode": "COc1ccc(Oc2nc3ccc(OC)cc3cc2-c2c(C#N)c(N)n3c(nc4ccccc43)c2C#N)cc1", "assayTarget": "Bacillus subtilis", "MIC99": "250 µg/mL"}
{"smilesCode": "Cc1ccc2nc(Oc3ccc(F)cc3)c(-c3c(C#N)c(N)n4c(nc5cc(C)ccc54)c3C#N)cc2c1", "assayTarget": "Bacillus subtilis", "MIC99": "250 µg/mL"}
{"smilesCode": "COc1ccc2nc(Oc3ccc(F)cc3)c(-c3c(C#N)c(N)n4c(nc5ccccc54)c3C#N)cc2c1", "assayTarget": "Bacillus subtilis", "MIC99": "200 µg/mL"}
{"smilesCode": "COc1ccc2nc(Oc3ccc(C)cc3)c(-c3c(C#N)c(N)n4c(nc5cc(C)ccc54)c3C#N)cc2c1", "assayTarget": "Bacillus subtilis", "MIC99": "125 µg/mL"}
{"smilesCode": "Cc1ccc(Oc2nc3ccc(C)cc3cc2-c2c(C#N)c(N)n3c(nc4ccccc43)c2C#N)cc1", "assayTarget": "Bacillus subtilis", "MIC99": "100 µg/mL"}

Enquiry: So what does the record say about MIC99 for "COc1ccc2nc(Oc3ccc(F)cc3)c(-c3c(C#N)c(N)n4c(nc5cc(C)ccc54)c3C#N)cc2c1" ?
Return: 250 µg/mL

Enquiry: So what does the record say about MIC99 for "COc1ccc(Oc2nc3ccc(OC)cc3cc2-c2c(C#N)c(N)n3c(nc4cc(C)ccc43)c2C#N)cc1" ?
Return: 100 µg/mL

Enquiry: So what does the record say about MIC99 for "Cc1ccc2nc(Oc3ccccc3)c(-c3c(C#N)c(N)n4c(nc5cc(C)ccc54)c3C#N)cc2c1" ?
Return: 500 µg/mL

Enquiry: So what does the record say about MIC99 for "COc1ccc(Oc2nc3ccc(C)cc3cc2-c2c(C#N)c(N)n3c(nc4ccccc43)c2C#N)cc1" ?
Return: 125 µg/mL

Entry source: ChEMBL document CHEMBL3046907
